FYI, the data here is from paper PMC5540273.

Reported values of %Inh for individual entries
Tested on: WEE2;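 note: KINOMEscan kinase panel screen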
Conditions: concentration: 1 μM, replicates: in singlicate; n = 1
outcome_measure: %Inh (%)

molecule=COc1ccc(Nc2nccc(NCCNC(=O)Nc3cc(C)ccc3C)n2)cc1 unit_name=% recorded_measurement=0
molecule="O=C(Nc1n[nH]c2nc(-c3ccco3)c(Br)cc12)C1CCN(Cc2ccccc2)C1.O=C(O)[C@H](O)[C@@H](O)C(=O)O (stereo not drawn)" unit_name=% recorded_measurement=8
molecule=c1ccc(-c2ccnc3[nH]ccc23)cc1 unit_name=% recorded_measurement=23
molecule=CCc1ccc(-c2ccc3c(c2)-c2n[nH]cc2S(=O)(=O)N3C)cc1 unit_name=% recorded_measurement=0
molecule=COc1cccc(C2=C(Nc3cc(Cl)c(O)c(Cl)c3)C(=O)NC2=O)c1 unit_name=% recorded_measurement=0
molecule=CC(C)c1ccc(O)cc1Nc1ccnc2ccc(C(F)(F)F)cc12 unit_name=% recorded_measurement=5
molecule=Cc1ccc(-c2nc(Nc3ccncc3)c3ccccc3n2)s1 unit_name=% recorded_measurement=4
molecule=O=C1NC(=O)C(c2ccc(Cl)cc2)=C1Nc1cccc(Cl)c1 unit_name=% recorded_measurement=29
molecule=Cn1cnc2c(N)ncnc21 unit_name=% recorded_measurement=29
